Would you kindly list IC50 for each of these compounds?
Experiment: Inhibition of mouse GAT3 expressed in human HEK293 cell line assessed as inhibition of [3H]GABA uptake measured after 40 mins […]
Give bare numbers, in µM.

Use the examples below as a reference point.
{"COMPOUND": "CN(CCC=C1c2ccccc2CCc2ccccc21)C(CCN)C(=O)NCc1ccc(Cl)cc1 (stereo not given)", "PARAMETER": "IC50", "TEST_RESULT": 5.13}
{"COMPOUND": "CN(CCC=C1c2ccccc2CCc2ccccc21)C(CCN)C(=O)NCc1ccc(F)cc1 (stereo not given)", "PARAMETER": "IC50", "TEST_RESULT": 4.79}
{"COMPOUND": "Cc1ccc(CNC(=O)C(CCO)N(C)CCC=C2c3ccccc3C=Cc3ccccc32)cc1 (stereo not given)", "PARAMETER": "IC50", "TEST_RESULT": 17}
{"COMPOUND": "CN(CCC=C(c1ccccc1)c1ccccc1)C(CCN)C(=O)NCc1ccccc1Cl (stereo not given)", "PARAMETER": "IC50", "TEST_RESULT": 10}
{"COMPOUND": "CN(CCC=C1c2ccccc2C=Cc2ccccc21)C(CCO)C(=O)NCc1ccccc1 (stereo not given)", "PARAMETER": "IC50", "TEST_RESULT": 13.5}

Batch request: IC50 per item, same order as input.
1. CN(CCC=C1c2ccccc2CCc2ccccc21)C(CCO)C(=O)NCc1ccc(F)cc1 (stereo not given)
2. CN(CCC=C1c2ccccc2CCc2ccccc21)C(CCO)C(=O)NCc1ccccc1Cl (stereo not given)
3. CN(CCC=C1c2ccccc2C=Cc2ccccc21)C(CCO)C(=O)NCc1ccc(F)cc1 (stereo not given)
4. Cc1ccc(CNC(=O)C(CCN)N(C)CCC=C2c3ccccc3CCc3ccccc32)cc1 (stereo not given)
5. Cc1ccc(CNC(=O)C(CCO)N(C)CCC=C2c3ccccc3CCc3ccccc32)cc1 (stereo not given)

16.6
12.6
12.3
4.79
12.6

* * *

Assay: Inhibition of mouse GAT3 expressed in human HEK293 cell line assessed as inhibition of [3H]GABA uptake measured after 40 mins […]
PARAMETER: pIC50
Numbers only, as −log10 of the molar value.

Batch request: pIC50 per item, same order as input.
1. CN(CCC=C1c2ccccc2-c2ccccc21)C(CCO)C(=O)NCc1ccccc1Cl (centres undefined)
2. CC(=O)NCCC(C(=O)NCc1ccc(Cl)cc1)N(C)CCC=C1c2ccccc2CCc2ccccc21 (centres undefined)
3. CC(=O)NCCC(C(=O)NCc1ccc(C)cc1)N(C)CCC=C1c2ccccc2CCc2ccccc21 (centres undefined)
4. Cc1ccc(CNC(=O)C(CCO)N(C)CCC=C2c3ccccc3-c3ccccc32)cc1 (centres undefined)
5. Cc1ccsc1C(=CCCN(C)[C@H]1CCCC[C@H]1C(=O)O)c1sccc1C
6. CN(CCC=C1c2ccccc2-c2ccccc21)C(CCO)C(=O)NCc1ccc(Cl)cc1 (centres undefined)
7. CN(CCC=C1c2ccccc2-c2ccccc21)C(CCO)C(=O)NCc1ccccc1 (centres undefined)

1: 4.79; 2: 4.84; 3: 5.25; 4: 4.70; 5: 3.03; 6: 4.99; 7: 4.90

Batch request: pIC50 per item, same order as input.
1. CN(CCC=C1c2ccccc2C=Cc2ccccc21)C(CCO)C(=O)NCc1ccc(Cl)cc1 (centres undefined)
2. CN(CCC=C1c2ccccc2-c2ccccc21)C(CCO)C(=O)NCc1ccc(F)cc1 (centres undefined)

1. 4.87
2. 4.87
